- target_desc: SHP2-C SH2;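 further: peptide library displayed on the E. coli surface as eCPX fusions, selected cells deep-sequenced, score is each peptide's frequency after selection divided by its frequency in the input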
- method_description: SH2 binding enrichment of the phosphorylated peptide, bacterial display (enrichment ratio); higher = better substrate or ligand; peptides without Tyr show the background
Quick list: SH2 binding enrichment per entry.

| macromolecule_sequence | SH2 binding enrichment |
| --- | --- |
| GNHISYYQSDG [CACNA1C_Y1757_V1755I] | 0.751 |
| DDYDLYGGEKF [PTPN11_Y66_Y62D] | 0.59 |
| HNQDGYSFPSR [LDLR_Y845_YF] | 0.76 |
| ACVARYIFKRL [LPCAT3_Y348_W344C] | 0.859 |
| TACNPYKPPGP | 0.838 |
| LSSEMCVKSYT [F5_Y2149_Y2149C] | 0.452 |
| EKMWTYMRSAE [GRIA4_Y695] | 0.726 |
| LSSETYVKSFT [F5_Y2149_M2148T_YF] | 0.74 |
| KDPPDYKYQPR [SOX9_Y172_H169P] | 1.02 |
| GRVFVYRLSEQ [ITGAE_Y551_YF] | 1.87 |
| IEELTYIIKQD [STX5_Y137] | 0.779 |
| NNDLCYWVLEL [IARS1_Y434_P437L] | 0.518 |
| SNSATYSGSVA [PDLIM5_Y382] | 0.572 |
| FKEVVYQAMEE [TACC3_Y684_E680K] | 0.994 |
| KWTVDYLSQVG [TYW5_Y48] | 0.766 |
| LVTRSYLLGNS [LMNA_Y646] | 0.633 |
| VHNLDYFKKTT [FGFR3_Y647_YF] | 0.678 |
| ATDLAYFLVRE [ASL_Y375_K380E_YF] | 1.67 |
| MQMEEYRGWVE [BTNL2_Y91] | 0.392 |
| PLGVLYKVKVY [PTS_Y128_V124L] | 0.817 |
| PYGQWYESHYA [RPS8_Y113_R110G] | 0.992 |
| WIPIQYPIISE [NOG_Y222] | 1.35 |
| FQEKGYNKEPR [CHRND_Y38_L42P] | 0.981 |
| DSIRDYEDGTE [CLNS1A_Y214_M218T] | 0.67 |
| CNRADYSKLAS [GNE_Y22_P27S] | 0.625 |
| ESFRLYPPVPQ [CYP4B1_Y377] | 0.713 |
| LEQQKYTVTID [IKBKB_Y199_V203I] | 0.752 |
| CNPLRYPVLMS [OR2T1_Y182] | 0.875 |
| SRIWVYNHYRC [BRCA2_Y2621_W2626C] | 0.864 |
